- protocol_description: qHTS assay to identify small molecule antagonists of the estrogen receptor alpha (ER-alpha) signaling pathway using the BG1 cell line (AID 743080);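 also: BG1 cells stimulated with 17beta-estradiol alongside compound; nearly all actives have a fitted effect of over 25% in size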
- setup_conditions: BG1Luc4E2 ERE-luciferase antagonist mode, luminescence; series mostly up to 70.3 µM
Records with an inconclusive call do not appear. The source made the active and inactive calls. Calls follow the shape of the full dose curve.

molecule	outcome
NNC(=O)c1cccc(C(=O)NN)c1	inactive
Cc1cccc(CN2CCN(C(c3ccccc3)c3ccc(Cl)cc3)CC2)c1 (stereo not drawn)	inactive
O=C(O)c1ccc(Cl)c(Cl)c1	inactive

---

- protocol_description: A CellTox Green Cytotoxicity Assay to monitor cytotoxicity in HEK293 cells - 40 hour (AID 1224871); also: nearly all actives have a fitted effect of over 45% in size
- setup_conditions: CellTox Green fluorescence; series mostly up to 76.8 µM
Inconclusive results are not listed. Calls of active or inactive are those of the source. Calls follow the shape of the dose curve; as a rule, active = well fitted activation curve with a large enough effect in the repeat runs; inconclusive = weak or mixed curves; inactive = flat fitted curve, though single readings scatter.
One label from this list, please: active, inactive

compound	category_label
CCCCCCCCCCCCc1ccc(O)cc1	active

Note: attention shifts to another entry.
Incoming: Tell me the recorded outcome of this test for "C[C@@H](NCCCc1cccc(C(F)(F)F)c1)c1cccc2ccccc12" .
Outgoing: active

---

- protocol_description: qHTS assay to identify small molecule antagonists of the retinoid-related orphan receptor gamma (ROR-gamma) signaling pathway - cell viability counter screen (AID 1159520); also: nearly all actives have a fitted effect of over 50% in size
- setup_conditions: Tet-on RORgamma CHO cells viability, ATP luminescence, 16 h; series mostly up to 92.4 µM
Results filed as inconclusive are left out. Activity calls are given as the source filed them. The call rests on the fitted dose curve; in most records, active means well fitted cell-killing curve with a large enough effect in the repeat runs; inconclusive means weak or mixed curves, or effect the other way; inactive means no such curve, though single readings can be large or run the other way.
Give your call using only these classes: active, inactive

molecule	category_label
CCCN(CCC)C(=O)C(CCC(=O)OCCCN1CCN(CCOC(=O)Cc2c(C)n(C(=O)c3ccc(Cl)cc3)c3ccc(OC)cc23)CC1)NC(=O)c1ccccc1 (stereo not given)	inactive
C1CCCC1	inactive
Cc1oc(-c2ccccc2)nc1CCC(=O)c1ccc(CC2SC(=O)NC2=O)cc1 (stereo not given)	inactive

Incoming: Assay outcome for "CC/C(=C(\c1ccc(O)cc1)c1ccc(OCCN(C)C)cc1)c1ccccc1" : what was it?
Outgoing: active

Incoming: Assay outcome for "N=C1N=C(N)c2cc3ccccc3cc21" : what was it?
Outgoing: active

Incoming: Hey, what did the test say about Cc1c(C)c2c(c(C)c1O)CCC(C)(COc1ccc(CC3SC(=O)NC3=O)cc1)O2 (stereo not given) ?
Outgoing: inactive

Incoming: Assay outcome for "CCCCCCCC(=O)[O-].CCCCCCCC(=O)[O-].[Zn+2]" : what was it?
Outgoing: inactive

---

- protocol_description: Human pregnane X receptor (PXR) small molecule agonists, qHTS cell viability counter screen (AID 1346977); also: nearly all actives have a fitted effect of over 50% in size
- setup_conditions: PXR-Luc HepG2 viability, CellTiter-Fluor, 24 h; series mostly up to 92.4 µM
Inconclusive results are not listed. Activity calls are given as the source filed them. Calls follow the shape of the dose curve; as a rule, active = well fitted cell-killing curve with a large enough effect in the repeat runs; inconclusive = weak or mixed curves, or effect the other way; inactive = flat fitted curve, though single readings scatter.
Form entry, call: pick from active, inactive

Solved cases below.
compound	category_label
CCCCCCCCCCCCCCCC[N+](C)(C)CCN(Cc1ccc(OC)cc1)c1ncccn1	active
CC(C)(C)C1CCC(CC2=C(O)c3ccccc3C(=O)C2=O)CC1 (stereo not given)	active
Cc1nc(-c2ccc3c(c2)CCN(CCC2CCC(NC(=O)/C=C/c4ccc(F)cc4)CC2)CC3)no1 (stereo not given)	inactive
COc1ccc(CN2CCN(C(c3ccc(F)cc3)c3ccc(F)cc3)CC2)c(OC)c1OC	active
Oc1cccc(-c2c3nc(c(-c4cccc(O)c4)c4ccc([nH]4)c(-c4cccc(O)c4)c4nc(c(-c5cccc(O)c5)c5ccc2[nH]5)CC4)C=C3)c1	active

Here is another compound to look at.
Incoming: Dear colleague, could you share the recorded outcome for "CN(C)c1ccc(SC#N)cc1" when you have a moment?
Outgoing: inactive

---

- protocol_description: A CellTox Green Cytotoxicity Assay to monitor cytotoxicity in HepG2 cells - 32 hour (AID 1224883); also: nearly all actives have a fitted effect of over 50% in size
- setup_conditions: CellTox Green fluorescence; series mostly up to 76.8 µM
Records with an inconclusive call do not appear. The source made the active and inactive calls. Calls follow the shape of the dose curve; as a rule, active = well fitted activation curve with a large enough effect in the repeat runs; inconclusive = weak or mixed curves; inactive = flat fitted curve, though single readings scatter.
Reply using exactly one outcome from class 1 (active), class 0 (inactive)

Previously resolved entries follow.
smiles_data	category_label
Nc1nc2ccccc2n1Cc1ccc(F)cc1	class 1
Cn1cc(C(=O)[C@@H]2CCc3nc[nH]c3C2)c2ccccc21	class 0

Continue with the next compound.
Incoming: Assay result, entry "CCN(Cc1cccnc1)C(=O)c1cccc(Cl)c1[C@]1(C)C(=O)N(Cc2ccc(OC)cc2OC)c2ccc(Cl)cc21" — outcome?
Outgoing: class 0

---

- experimental_target: Cytochrome P450 1A2 (Homo sapiens)
- protocol_description: Cytochrome P450 Family 1 Subfamily A Member 2 (CYP1A2) small molecule antagonists: luciferase reporter qHTS assay (AID 1671199); also: nearly all actives have a fitted effect of over 50% in size
- setup_conditions: P450-Glo CYP1A2 enzyme, luciferin luminescence, 1 h; series mostly up to 53 µM
Records with an inconclusive call do not appear. The source made the active and inactive calls. Calls follow the shape of the dose curve; as a rule, active = well fitted inhibition curve with a large enough effect in the repeat runs; inconclusive = weak or mixed curves; inactive = no such curve, though single readings can be large or run the other way.
In this exercise, the only acceptable responses are YES = active, NO = inactive

Take a look at these entries with their results.
smiles_data	category_label
[O-][n+]1ccccc1SSc1cccc[n+]1[O-]	YES
CCc1cc(Cc2cc(CC)cc(C(C)(C)C)c2O)c(O)c(C(C)(C)C)c1	NO
Cc1cc(CCN2CCN(c3nsc4ccccc34)CC2)cc2c1NC(=O)CC2(C)C	YES

Incoming: Just curious, what result did "Cc1onc(-c2c(Cl)cccc2Cl)c1C(=O)N[C@@H]1C(=O)N2[C@@H]1SC(C)(C)[C@@H]2C(=O)O" get here?
Outgoing: NO

Incoming: In this assay, the call recorded for "NNC(=O)c1cccc(C(=O)NN)c1" was what?
Outgoing: YES

---

- protocol_description: A CellTox Green Cytotoxicity Assay to monitor cytotoxicity in HEK293 cells - 24 hour (AID 1224875); also: nearly all actives have a fitted effect of over 45% in size
- setup_conditions: CellTox Green fluorescence; series mostly up to 76.8 µM
Records with an inconclusive call do not appear. Activity calls are given as the source filed them. The call rests on the fitted dose curve; in most records, active means well fitted activation curve with a large enough effect in the repeat runs; inconclusive means weak or mixed curves; inactive means flat fitted curve, though single readings scatter.
Select the matching outcome among active, inactive

# example entries with known answers
molecule	category_label
CC1=C(C(=O)OC(C)C)C(c2cccc([N+](=O)[O-])c2)C(C(=O)OC2CN(C(c3ccccc3)c3ccccc3)C2)=C(N)N1 (centres undefined)	inactive
N=C1N=C(N)c2cc3ccccc3cc21	active

Incoming: What outcome does the record of this test show for "Nc1ccc2c3c(cccc13)-c1ccccc1-2" ?
Outgoing: active

Incoming: Identify the outcome logged in this assay for the molecule shown: "Oc1cccc2cc3cccc(O)c3c(O)c12"
Outgoing: inactive

Incoming: Outcome logged for "Cc1cc(O)c2ccccc2c1O" in this assay:
Outgoing: active

Incoming: What did this assay record as the result for "COc1ccc(CN2CCN(C(c3ccc(F)cc3)c3ccc(F)cc3)CC2)c(OC)c1OC" ?
Outgoing: inactive

---

- protocol_description: qHTS assay to identify small molecule antagonists of the retinoid acid receptor (RAR) signaling pathway - cell viability counter screen (AID 1159551); also: nearly all actives have a fitted effect of over 35% in size
- setup_conditions: C3RL4 cells viability, ATP luminescence (CellTiter-Glo), 6 h; series mostly up to 92.4 µM
Inconclusive results are not listed. Calls of active or inactive are those of the source. The call rests on the fitted dose curve; in most records, active means well fitted cell-killing curve with a large enough effect in the repeat runs; inconclusive means weak or mixed curves, or effect the other way; inactive means flat fitted curve, though single readings scatter.
Pick from active, inactive when you respond.

Example results:
molecule	category_label
Cc1c(C)c2c(c(C)c1OC(=O)CCC(=O)O)CC[C@@](C)(CCC[C@H](C)CCC[C@H](C)CCCC(C)C)O2	inactive
Oc1cc2ccccc2c2ccccc12	active
Clc1ccc2cc3ccccc3cc2c1	inactive
CC(C)(C)C(=O)OCOC(=O)C1N2C(=O)CC2S(=O)(=O)C1(C)C (stereo unspecified)	inactive
CNc1ccc(O)cc1	active

Incoming: In this assay, the call recorded for "O=C1Cc2cc(CCN3CCN(c4nsc5ccccc45)CC3)c(Cl)cc2N1" was what?
Outgoing: inactive

Incoming: What was the test verdict on "Cc1cc(O)c(C(C)(C)C)cc1Sc1cc(C(C)(C)C)c(O)cc1C" ?
Outgoing: active

Incoming: Returns: the outcome recorded for "C[C@@H](NCCCc1cccc(C(F)(F)F)c1)c1cccc2ccccc12" in this assay.
Outgoing: active

Incoming: Hey, what did the test say about "Cn1cc(C(=O)[C@@H]2CCc3nc[nH]c3C2)c2ccccc21" ?
Outgoing: inactive

Incoming: Answer briefly: the call reported for "C=C(C)C(=O)OCC[N+](C)(C)C" in this assay.
Outgoing: inactive

Incoming: Recorded test call requested for "C[n+]1cc2c3c(ccc2c2ccc4cc5c(cc4c21)OCO5)OCO3"
Outgoing: active

Incoming: Identify the outcome logged in this assay for the molecule shown: Cc1cccc(CN2CCN(C(c3ccccc3)c3ccc(Cl)cc3)CC2)c1 (stereo unspecified)
Outgoing: inactive

Incoming: What classification did Cc1cccc(N(C)C(=S)Oc2ccc3c(c2)C2CCC3C2)c1 (stereo unspecified) end up with in this test?
Outgoing: inactive

---

- protocol_description: qHTS assay to identify small molecule antagonists of the farnesoid-X-receptor (FXR) signaling pathway - cell viability counter screen (AID 743221); also: nearly all actives have a fitted effect of over 50% in size
- setup_conditions: FXR-bla HEK293T viability, CellTiter-Glo luminescence, 16 h; series mostly up to 62.6 µM
Inconclusive results are not listed. The source made the active and inactive calls. Calls follow the shape of the dose curve; as a rule, active = well fitted cell-killing curve with a large enough effect in the repeat runs (not every such curve was filed as active); inconclusive = weak or mixed curves, or effect the other way; inactive = no such curve, though single readings can be large or run the other way.
Write down one outcome, taken from active, inactive

compound	category_label
COC(=O)c1cc(Cl)ccc1OC	inactive
COc1ccc(C(=O)/C(Br)=C\C(=O)O)cc1	inactive
CN(C)[C@@H]1C(=O)C(C(N)=O)=C(O)[C@@]2(O)C(=O)C3=C(O)c4c(O)ccc(Cl)c4[C@@H](O)[C@H]3C[C@@H]12	inactive
CCCCC(CC)COP(=O)(O)OCC(CC)CCCC (stereo unspecified)	inactive
CS(=O)(=O)CCNCc1ccc(-c2ccc3ncnc(Nc4ccc(OCc5cccc(F)c5)c(Cl)c4)c3c2)o1	active
CCC1OCC(COc2ccc(Oc3ccccc3)cc2)O1 (stereo unspecified)	inactive

// switching to the query compound
Incoming: Test call, this compound: "O=c1cc(-c2ccc(O)cc2)oc2cc(O)cc(O)c12"
Outgoing: inactive
